Biological target: T1, LGR7 (RXFP1) receptor (UniProt Q9HBX9 1-757, limits assumed)
T1 construct: whole, on cells
T1 sequence (looked up): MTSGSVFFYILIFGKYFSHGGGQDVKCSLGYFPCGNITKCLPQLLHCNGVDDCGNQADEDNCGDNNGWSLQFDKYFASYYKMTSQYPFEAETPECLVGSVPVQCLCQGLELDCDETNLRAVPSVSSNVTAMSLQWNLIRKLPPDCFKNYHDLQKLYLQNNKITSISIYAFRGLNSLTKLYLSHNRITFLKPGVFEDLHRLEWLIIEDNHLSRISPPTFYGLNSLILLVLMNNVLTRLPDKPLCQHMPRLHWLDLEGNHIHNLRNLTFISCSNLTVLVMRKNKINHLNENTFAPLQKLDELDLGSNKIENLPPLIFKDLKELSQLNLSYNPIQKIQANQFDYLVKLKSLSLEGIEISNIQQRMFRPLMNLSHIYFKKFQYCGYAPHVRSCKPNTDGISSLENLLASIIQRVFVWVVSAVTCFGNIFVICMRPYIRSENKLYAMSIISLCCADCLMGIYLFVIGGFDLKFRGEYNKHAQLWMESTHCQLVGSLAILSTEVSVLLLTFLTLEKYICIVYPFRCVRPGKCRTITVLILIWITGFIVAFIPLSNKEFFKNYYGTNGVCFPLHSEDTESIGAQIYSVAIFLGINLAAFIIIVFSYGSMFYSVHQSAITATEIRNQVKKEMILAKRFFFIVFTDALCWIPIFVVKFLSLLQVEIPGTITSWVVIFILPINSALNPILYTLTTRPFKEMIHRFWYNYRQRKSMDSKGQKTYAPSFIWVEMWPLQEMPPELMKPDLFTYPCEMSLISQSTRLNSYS
Assay: whole cell competition binding against 100 pM [125I]-H2 relaxin, LGR7-transfected HEK293T cells
No end group written: not given here.
Listed binders paired with reported pKi
Provide the reading as a plain figure in pKi.

What does the record list as pKi for chimeric relaxin polypeptide H2 B chain/INSL5 A chain (designed binder, Synthetic two-chain chimera; The synthesis protocol is detailed only for H2-B/H1-A; also called H2-B/INSL5-A) chain 1: DSWMEEVIKLCGRELVRAQIAICGMSTWS chain 2: DLQTLCCTDGCSMTDLSALC ?
5.31

What does the record list as pKi for human relaxin 2 (H2), wild-type; A + B chain (ligand, disulfide (positions not given here); also: A and B chains joined by disulphide bonds, places not given here, Two-chain peptide hormone, A and B chains joined by disulphide bonds; also called H2 relaxin) chain 1: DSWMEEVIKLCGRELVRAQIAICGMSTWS chain 2: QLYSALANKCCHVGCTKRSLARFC ?
9.03
